Assay: Inhibition of […] in mouse 32Dbeta cells assessed as decrease in cell growth in presence of IL2 incubated for 30 mins followed by IL2 addition and measured after 2.5 days by alamar blue assay
pIC50: −log10 of the molar value.
READOUT: pIC50

Observe how each entry below is paired with its result.
* Cn1c(Cc2nn(CCC(=O)O)c(=O)c3ccccc23)nnc1SCC(=O)Nc1ccc(Cl)cc1Cl | < 4.52
* Cn1nc(Cc2nnc(SCC(=O)Nc3ccc(Cl)cc3Cl)n2CCC(=O)O)c2ccccc2c1=O | < 4.52
* Cn1c(Cc2nn(CCC3OCCO3)c(=O)c3ccccc23)nnc1SCC(=O)Nc1ccc(Cl)cc1Cl | < 4.52

Form field pIC50, entry "Cn1nc(Cc2nnc(SCCCCCCCC(=O)Nc3ccc(Cl)cc3Cl)n2CCC(=O)O)c2ccccc2c1=O" : < 4.52

Form field pIC50, entry "CN(C)CCCn1c(Cc2nn(C)c(=O)c3ccccc23)nnc1SCCCCCCCC(=O)Nc1ccc(Cl)cc1Cl" : 5.26

Form field pIC50, entry "Cn1c(Cc2nn(C)c(=O)c3ccccc23)nnc1SCCCCCCCC(=O)Nc1ccc(C(=O)c2ccccc2)cc1" : 4.69

Form field pIC50, entry "Cn1c(Cc2nn(CCC=O)c(=O)c3ccccc23)nnc1SCCCCCCCC(=O)Nc1ccc(Cl)cc1Cl" : 4.93

Form field pIC50, entry "Cn1nc(Cc2nnc(SCCCCCCCC(=O)Nc3ccc(Cl)cc3Cl)n2CCCO)c2ccccc2c1=O" : < 4.52

// provenance: BindingDB's records for doi:10.1016/j.bmc.2021.116161
